Data origin: ChEMBL document CHEMBL5375992

Biological target: Cereblon/Ikaros (Homo sapiens) (UniProt Q96SW2+Q13422)
Experiment: Protac activity at CRBN/IKZF1 (unknown origin) transfected in HEK293T cells at 100 nM incubated for 24 hrs by flow cytometry analysis relative to control
Format: cell-based
Property Measured: Activity
The reply should read as a number followed by its unit.

// below: answered molecules
>>> reported_measurement("O=C1CCC(N2Cc3cc(NC(=O)c4ccc5c(c4)OCO5)ccc3C2=O)C(=O)N1 (centres undefined)")
"7%"
>>> reported_measurement("COc1ccc2c(c1)C=C(C(=O)Nc1ccc3c(c1)CN(C1CCC(=O)NC1=O)C3=O)CO2 (centres undefined)")
"16%"
>>> reported_measurement("O=C1CCC(N2Cc3cc(NC(=O)C4=Cc5ccc(Br)cc5OC4)ccc3C2=O)C(=O)N1 (centres undefined)")
"13%"
>>> reported_measurement("CC(=O)Nc1ccc2c(c1)CN(C1CCC(=O)NC1=O)C2=O (centres undefined)")
"4%"
>>> reported_measurement("COc1ccc2c(c1)OCC(C(=O)Nc1ccc3c(c1)CN(C1CCC(=O)NC1=O)C3=O)=C2 (centres undefined)")
"4%"

Query block: Quick one: Activity for O=C1CCC(N2Cc3cc(NC(=O)C4=Cc5cc(Br)cc(Br)c5OC4)ccc3C2=O)C(=O)N1 (centres undefined) ?
Result block: 12%

Query block: Quick one: Activity for O=C1CCC(N2Cc3cc(NC(=O)C4=Cc5ccc(C(F)(F)F)cc5OC4)ccc3C2=O)C(=O)N1 (centres undefined) ?
Result block: 8%

Query block: Quick one: Activity for O=C1CCC(N2Cc3cc(NC(=O)c4ccc5c(c4)CCCC5)ccc3C2=O)C(=O)N1 (centres undefined) ?
Result block: 16%

Query block: Quick one: Activity for COc1cc(Br)cc2c1OCC(C(=O)Nc1ccc3c(c1)CN(C1CCC(=O)NC1=O)C3=O)=C2 (centres undefined) ?
Result block: 13%
